Source: patent US20260297109A1

The compounds listed here are annotated with their IC50.
target: SAE (Homo sapiens, UniProt Q9UBT2); construct: endogenous in cells; host or cells: HCT116; assay: SUMO IF: in vitro inhibitory activity assay against SAE in HCT116 cells (SUMO-2/3 immunofluorescence); assay type: cell-based; conditions: class symbols, 6 h at 37° C.
Sequence (Q9UBT2 whole entry): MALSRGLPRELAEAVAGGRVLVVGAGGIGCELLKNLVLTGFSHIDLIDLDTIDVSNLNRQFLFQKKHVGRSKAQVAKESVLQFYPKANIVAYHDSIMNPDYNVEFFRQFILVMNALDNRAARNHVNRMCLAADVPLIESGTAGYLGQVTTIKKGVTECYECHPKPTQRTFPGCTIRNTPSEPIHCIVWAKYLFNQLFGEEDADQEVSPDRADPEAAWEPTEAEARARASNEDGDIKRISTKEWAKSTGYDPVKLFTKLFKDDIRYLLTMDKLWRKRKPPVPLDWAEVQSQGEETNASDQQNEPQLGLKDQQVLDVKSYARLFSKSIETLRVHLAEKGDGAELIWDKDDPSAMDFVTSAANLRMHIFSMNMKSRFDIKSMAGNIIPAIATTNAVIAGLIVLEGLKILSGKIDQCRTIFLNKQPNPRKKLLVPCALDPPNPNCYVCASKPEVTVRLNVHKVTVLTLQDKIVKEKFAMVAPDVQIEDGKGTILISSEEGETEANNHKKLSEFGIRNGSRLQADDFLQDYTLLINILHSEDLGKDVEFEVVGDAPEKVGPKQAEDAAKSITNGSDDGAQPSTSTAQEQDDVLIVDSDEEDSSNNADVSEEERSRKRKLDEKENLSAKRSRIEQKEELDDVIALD
Sequence (Q9UBE0 whole entry, further chain): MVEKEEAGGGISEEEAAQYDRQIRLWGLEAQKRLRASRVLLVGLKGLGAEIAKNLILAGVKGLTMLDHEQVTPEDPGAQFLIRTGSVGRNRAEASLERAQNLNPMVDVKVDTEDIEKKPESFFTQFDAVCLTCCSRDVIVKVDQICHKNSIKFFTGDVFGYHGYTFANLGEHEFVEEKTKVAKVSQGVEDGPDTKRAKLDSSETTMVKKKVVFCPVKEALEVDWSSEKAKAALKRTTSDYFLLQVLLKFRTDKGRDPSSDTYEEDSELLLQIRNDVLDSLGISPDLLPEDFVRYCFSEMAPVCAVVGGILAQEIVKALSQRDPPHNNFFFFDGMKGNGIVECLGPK
readout.name: IC50

{"columns": ["compound", "readout.name", "result"],
 "data": [
  ["NS(=O)(=O)OC[C@H]1[C@H](F)[C@@H](Nc2ncncc2C(=O)c2cc3c(s2)CCC[C@@]32OCCc3ccc(F)cc32)C[C@@H]1O", "IC50", "> 200 nM"],
  ["CC1CN[C@@]2(CCCc3sc(C(=O)c4cncnc4N[C@H]4C[C@H](O)[C@@H](COS(N)(=O)=O)[C@@H]4F)cc32)c2cc(Cl)ccc21 (some centres unmarked)", "IC50", "> 200 nM"],
  ["NS(=O)(=O)OC[C@H]1[C@H](F)[C@@H](Nc2ncncc2C(=O)c2cc3c(s2)OC[C@]32NCCc3ccccc32)C[C@@H]1O", "IC50", "50 to 200 nM"],
  ["NS(=O)(=O)OC[C@H]1[C@H](F)[C@@H](Nc2ncncc2C(=O)c2cc3c(s2)CSCC32NCCc3ccc(Cl)cc32)C[C@@H]1O (some centres unmarked)", "IC50", "≤ 50 nM"],
  ["Cc1sc(C(=O)c2cncnc2N[C@H]2C[C@H](O)[C@@H](COS(N)(=O)=O)[C@@H]2F)cc1C1NCCc2ccccc21 (some centres unmarked)", "IC50", "> 200 nM"],
  ["NS(=O)(=O)OC[C@H]1[C@H](F)[C@@H](Nc2ncncc2C(=O)c2cc3c(s2)C=C[C@]32NCCc3ccc(F)cc32)C[C@@H]1O", "IC50", "≤ 50 nM"],
  ["NS(=O)(=O)OC[C@H]1[C@H](F)[C@@H](Nc2ncncc2C(=O)c2cc3c(s2)CCC32NCCc3cc(F)c(Cl)c(F)c32)C[C@@H]1O (some centres unmarked)", "IC50", "50 to 200 nM"],
  ["NS(=O)(=O)OC[C@H]1[C@H](F)[C@@H](Nc2ncncc2C(=O)c2cc3c(s2)CCC[C@]32NCC3(CC3)c3ccc(Cl)cc32)C[C@@H]1O", "IC50", "≤ 50 nM"],
  ["Cc1ccc2c(c1)[C@@]1(CCc3sc(C(=O)c4cncnc4N[C@H]4C[C@H](O)[C@@H](COS(N)(=O)=O)[C@@H]4F)cc31)NCC2", "IC50", "50 to 200 nM"],
  ["CC1Cc2ccc(Cl)cc2[C@]2(CCCc3sc(C(=O)c4cncnc4N[C@H]4C[C@H](O)[C@@H](COS(N)(=O)=O)[C@@H]4F)cc32)N1 (some centres unmarked)", "IC50", "> 200 nM"],
  ["Cc1sc(C(=O)c2cncnc2N[C@H]2C[C@H](O)[C@@H](COS(N)(=O)=O)[C@@H]2F)cc1[C@@H]1NCCc2ccc(C#N)cc21", "IC50", "50 to 200 nM"],
  ["COc1cc2c(cc1Cl)C(c1cc(C(=O)c3cncnc3N[C@H]3C[C@H](O)[C@@H](COS(N)(=O)=O)[C@@H]3F)sc1C)NCC2 (some centres unmarked)", "IC50", "50 to 200 nM"],
  ["NS(=O)(=O)OC[C@H]1[C@H](F)[C@@H](Nc2ncncc2C(=O)c2cc3c(s2)C(F)=CC32NCCc3ccc(Cl)cc32)C[C@@H]1O (some centres unmarked)", "IC50", "≤ 50 nM"],
  ["Cc1sc(C(=O)c2cncnc2N[C@H]2C[C@H](O)[C@@H](COS(N)(=O)=O)[C@@H]2F)cc1C1NCCc2ccc(C(F)(F)F)cc21 (some centres unmarked)", "IC50", "50 to 200 nM"],
  ["COc1cc2c(cc1Cl)[C@@]1(CCCc3sc(C(=O)c4cncnc4N[C@H]4C[C@H](O)[C@@H](COS(N)(=O)=O)[C@@H]4F)cc31)NCC2", "IC50", "50 to 200 nM"],
  ["NS(=O)(=O)OC[C@H]1[C@H](F)[C@@H](Nc2ncncc2C(=O)c2cc3c(s2)C(=O)C[C@@]32NCCc3ccc(Cl)cc32)C[C@@H]1O", "IC50", "> 200 nM"],
  ["CC1Cc2ccc(Cl)cc2[C@@]2(CCCc3sc(C(=O)c4cncnc4N[C@H]4C[C@H](O)[C@@H](COS(N)(=O)=O)[C@@H]4F)cc32)N1 (some centres unmarked)", "IC50", "50 to 200 nM"],
  ["CC(C)N1Cc2sc(C(=O)c3cncnc3N[C@H]3C[C@H](O)[C@@H](COS(N)(=O)=O)[C@@H]3F)cc2[C@@]2(C1)OCCc1ccc(Cl)cc12", "IC50", "> 200 nM"],
  ["NS(=O)(=O)OC[C@H]1[C@H](F)[C@@H](Nc2ncncc2C(=O)c2cc3c(s2)CCCC32NCCc3ccncc32)C[C@@H]1O (some centres unmarked)", "IC50", "50 to 200 nM"],
  ["NS(=O)(=O)OC[C@H]1[C@H](F)[C@@H](Nc2ncncc2C(=O)c2cc3c(s2)CCCC32NC3(CC3)Cc3ccc(Cl)cc32)C[C@@H]1O (some centres unmarked)", "IC50", "50 to 200 nM"],
  ["Cc1sc(C(=O)c2cncnc2N[C@H]2C[C@H](O)[C@@H](COS(N)(=O)=O)[C@@H]2F)cc1C1NCCc2cc(F)c(Cl)c(F)c21 (some centres unmarked)", "IC50", "50 to 200 nM"],
  ["N#Cc1cc2c(cc1Cl)C1(CCCc3sc(C(=O)c4cncnc4N[C@H]4C[C@H](O)[C@@H](COS(N)(=O)=O)[C@@H]4F)cc31)NCC2 (some centres unmarked)", "IC50", "50 to 200 nM"],
  ["NS(=O)(=O)OC[C@H]1[C@H](F)[C@@H](Nc2ncncc2C(=O)c2cc3c(s2)CC[C@@]32OCCc3ccc(F)cc32)C[C@@H]1O", "IC50", "> 200 nM"]
]}
